Test system: Fibroblast
METHOD_NOTES: Multiplex assay against human fibroblast
Type: toxicity, cell-based
CONDITION_PARAMETERS: 12 h, 1 µM, compound concentration 1 uM, replicate 2
VALUE_TYPE: Population Healthy Nuclei (%)
Reply with the number, then its unit.

Hello, please tell me recorded Population Healthy Nuclei (%) for this one: O=C(Nc1cccnn1)N1CCC(=Cc2cccc(Oc3ccc(C(F)(F)F)cn3)c2)CC1
17%

###

Test system: Fibroblast
METHOD_NOTES: Multiplex assay against human fibroblast
Type: toxicity, cell-based
CONDITION_PARAMETERS: 24 h, 10 µM, compound concentration 10 uM, replicate 1
Mark MET for reported Population Mitochondria Different-Phenotype (%) of 20% or greater; mark NOT MET for anything smaller.

Completed entries (count: 5):
Cc1ccc2nc(NCCN)c3ncc(C)n3c2c1.O=C(O)C(F)(F)F.O=C(O)C(F)(F)F; NOT MET
Cc1ccc(C(=O)Nc2cccc(C(F)(F)F)c2)cc1Nc1nc(-c2cccnc2)nc2c1cnn2C; MET
Cc1cc(C)c(S(=O)(=O)N(Cc2ccc(-c3cccc(S(C)(=O)=O)c3)cc2)Cc2ccc(C(F)(F)F)o2)c(C)c1; NOT MET
CN1CCN(C(=O)C(C)(C)c2ccc(C(=O)Nc3cn4cc(-c5cc(C(C)(C)C)cc(C(C)(C)C)c5)ccc4n3)cc2)CC1; NOT MET
CN(C)C(=O)C(CCN1CCC(O)(c2ccc(Cl)cc2)CC1)(c1ccccc1)c1ccccc1.Cl [LOPERAMIDE HYDROCHLORIDE]; MET

Decide: is the reported value of Population Mitochondria Different-Phenotype (%) for CCn1c(=O)c(-c2ccc(-c3cncs3)cc2Cl)cc2cnc(Nc3ccc(N4CCN(C)CC4)cc3)nc21 equal to or greater than 20%?
NOT MET

Decide: is the reported value of Population Mitochondria Different-Phenotype (%) for O=C(Nc1ccc(-n2nc(-c3cccnc3)cc2C(F)(F)F)cn1)c1ccc(-c2ccccc2)c(F)c1 equal to or greater than 20%?
NOT MET

Decide: is the reported value of Population Mitochondria Different-Phenotype (%) for CCCn1c(=O)c2[nH]c(-c3cnn(Cc4cccc(C(F)(F)F)c4)c3)nc2n(CC)c1=O equal to or greater than 20%?
NOT MET

Decide: is the reported value of Population Mitochondria Different-Phenotype (%) for CCOc1cc2ncc(C#N)c(Nc3ccc(OCc4ccccn4)c(Cl)c3)c2cc1NC(=O)/C=C/CN(C)C equal to or greater than 20%?
NOT MET

Decide: is the reported value of Population Mitochondria Different-Phenotype (%) for S=C(NCCCc1c[nH]cn1)NCCCN(Cc1ccc(Cl)c(Cl)c1)c1ccc(Br)cn1 equal to or greater than 20%?
NOT MET

Decide: is the reported value of Population Mitochondria Different-Phenotype (%) for COc1ccc(S(=O)(=O)N(CCO)c2ccccc2CN(C)C/C=C/c2ccc(Cl)cc2)cc1.O=P(O)(O)O equal to or greater than 20%?
NOT MET

Decide: is the reported value of Population Mitochondria Different-Phenotype (%) for CNC(=O)c1ccc(Nc2nc(OC3CCCC3)c3c(-c4ccc5nc(C)oc5c4)c[nH]c3n2)c(OC)c1 equal to or greater than 20%?
NOT MET

Decide: is the reported value of Population Mitochondria Different-Phenotype (%) for CN1CCC(=C2c3ccccc3CC(=O)c3sccc32)CC1.O=C(O)/C=C/C(=O)O [KETOTIFEN FUMARATE] equal to or greater than 20%?
MET

Decide: is the reported value of Population Mitochondria Different-Phenotype (%) for CN1C2CCC1CC(OC(c1ccc(F)cc1)c1ccc(F)cc1)C2.Cl (stereo unspecified) equal to or greater than 20%?
MET

Decide: is the reported value of Population Mitochondria Different-Phenotype (%) for CCOC(=O)c1c(C)[nH]c2ccc3c(c12)CN1CCc2cc(OC)ccc2C1O3 (stereo unspecified) equal to or greater than 20%?
MET

Decide: is the reported value of Population Mitochondria Different-Phenotype (%) for CCN1CCN(c2ccc(Nc3cc(N(C)C(=O)Nc4c(Cl)c(OC)cc(OC)c4Cl)ncn3)cc2)CC1 equal to or greater than 20%?
NOT MET

###

Test system: HEK-293T
METHOD_NOTES: Multiplex assay against HEK293T
Format: toxicity, cell-based
CONDITION_PARAMETERS: human, 24 h, 10 µM, compound concentration 10 uM, replicate 1
VALUE_TYPE: Population Hoechst High Intensity Objects (%)
Write the answer as a number in %, unit excluded.

// worked examples, Population Hoechst High Intensity Objects (%) included
CCN1CCN(c2ccc(Nc3cc(N(C)C(=O)Nc4c(Cl)c(OC)cc(OC)c4Cl)ncn3)cc2)CC1; 10
COC(=N)c1nc2ccc3ncnc(Nc4ccc(OC)cc4F)c3c2s1; 8
O=C1NC(=O)C(c2cnc3ccccn23)=C1c1cn2c3c(cc(F)cc13)CN(C(=O)N1CCCCC1)CC2; 14

Name the recorded Population Hoechst High Intensity Objects (%) of CN(C)C(=O)C(CCN1CCC(O)(c2ccc(Cl)cc2)CC1)(c1ccccc1)c1ccccc1.Cl [LOPERAMIDE HYDROCHLORIDE] , assay system HEK-293T.
23

Name the recorded Population Hoechst High Intensity Objects (%) of CNC(=O)c1ccc(Nc2nc(OC3CCCC3)c3c(-c4ccc5nc(C)oc5c4)c[nH]c3n2)c(OC)c1 , assay system HEK-293T.
15

Name the recorded Population Hoechst High Intensity Objects (%) of CCCS(=O)(=O)c1nc(NC2CC2)cc(-c2ccc3c(ccn3C3CC(C)(C)NC(C)(C)C3)c2)n1 , assay system HEK-293T.
11

Name the recorded Population Hoechst High Intensity Objects (%) of CCc1cccc(CC)c1NC(=O)c1nn(C)c2c1CCc1cnc(Nc3ccc(C(=O)NC4CCN(C)CC4)cc3OC(F)(F)F)nc1-2 , assay system HEK-293T.
10

###

Test system: HEK-293T
METHOD_NOTES: Multiplex assay against HEK293T;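 on Population Tubulin-Different-Phenotype (%): share of the cells with healthy nuclei that show this phenotype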
Format: toxicity, cell-based
CONDITION_PARAMETERS: human, 48 h, 1 µM, compound concentration 1 uM, replicate 1
VALUE_TYPE: Population Tubulin-Different-Phenotype (%)
Write the answer as a number in %, unit excluded.

Hello, please tell me recorded Population Tubulin-Different-Phenotype (%) for this one: CCN1CCN(Cc2ccc(Nc3ncc(F)c(-c4cc(F)c5nc(C)n(C(C)C)c5c4)n3)nc2)CC1.CS(=O)(=O)O
89

Hello, please tell me recorded Population Tubulin-Different-Phenotype (%) for this one: CCCn1c(=O)c2[nH]c(-c3cnn(Cc4cccc(C(F)(F)F)c4)c3)nc2n(CC)c1=O [GS 6201]
47

Hello, please tell me recorded Population Tubulin-Different-Phenotype (%) for this one: Cc1cc(C)c(S(=O)(=O)N(Cc2ccc(-c3cccc(S(C)(=O)=O)c3)cc2)Cc2ccc(C(F)(F)F)o2)c(C)c1
39

Hello, please tell me recorded Population Tubulin-Different-Phenotype (%) for this one: CN(C)C(=O)C(CCN1CCC(O)(c2ccc(Cl)cc2)CC1)(c1ccccc1)c1ccccc1.Cl [LOPERAMIDE HYDROCHLORIDE]
80

###

System: U2OS
METHOD_NOTES: Multiplex assay against U2OS
Format: toxicity, cell-based
CONDITION_PARAMETERS: human, 24 h, 1 µM, compound concentration 1 uM, replicate 1
hey, just use 1 (yes) if measured Population Apoptotic (%) is less than 40%, otherwise 0 (no)

COc1cc2ncnc(Nc3ccc(F)c(Cl)c3)c2cc1NC(=O)/C=C/CN1CCCCC1 [DACOMITINIB ANHYDROUS]; 0 (no)

Is it true that Population Apoptotic (%) reported for O=C1N/C(=N/c2ccccc2F)S/C1=C\c1ccc(C(=O)O)cc1 is less than 40%?
1 (yes)

Is it true that Population Apoptotic (%) reported for CCn1c(=O)c(-c2ccc(-c3cncs3)cc2Cl)cc2cnc(Nc3ccc(N4CCN(C)CC4)cc3)nc21 is less than 40%?
1 (yes)

Is it true that Population Apoptotic (%) reported for CN1CCN(C(=O)C(C)(C)c2ccc(C(=O)Nc3cn4cc(-c5cc(C(C)(C)C)cc(C(C)(C)C)c5)ccc4n3)cc2)CC1 [T3-CLK-N] is less than 40%?
1 (yes)

Is it true that Population Apoptotic (%) reported for C=C1/C(=C\C=C2/CCC[C@]3(C)[C@@H]([C@H](C)/C=C/[C@H](C)C(C)C)CC[C@@H]23)C[C@@H](O)C[C@@H]1O [DOXERCALCIFEROL] is less than 40%?
1 (yes)

Is it true that Population Apoptotic (%) reported for S=C(NCCCc1c[nH]cn1)NCCCN(Cc1ccc(Cl)c(Cl)c1)c1ccc(Br)cn1 is less than 40%?
0 (no)

Is it true that Population Apoptotic (%) reported for CNc1cc(Oc2cc(C(=O)Nc3cc(N4CCN(C)CC4)cc(C(F)(F)F)c3)ccc2C)ncn1 is less than 40%?
0 (no)

###

Test system: Fibroblast
METHOD_NOTES: Multiplex assay against human fibroblast
Type: toxicity, cell-based
CONDITION_PARAMETERS: 24 h, 10 µM, compound concentration 10 uM, replicate 2
VALUE_TYPE: Total Cell Count
Could you keep your reply to the number by itself?

Cl.O=c1c2cccn2c2ccccc2n1CCCN1CCC(c2ccc(Cl)cc2)CC1; 65
Cc1ccc2nc(NCCN)c3ncc(C)n3c2c1.O=C(O)C(F)(F)F.O=C(O)C(F)(F)F; 88
Cn1nc(C(F)(F)F)cc1-c1cnc(N2CCc3cc(S(=O)(=O)Nc4c(F)cc(Cl)cc4F)cc(N4CCCC4=O)c32)nc1; 55

Read the next record carefully.
Hello, please tell me recorded Total Cell Count for this one: CN(C)C(=O)C(CCN1CCC(O)(c2ccc(Cl)cc2)CC1)(c1ccccc1)c1ccccc1.Cl [LOPERAMIDE HYDROCHLORIDE]
70
